Biological target: Factor X, P00742
Sequence (P00742 whole entry, looked up): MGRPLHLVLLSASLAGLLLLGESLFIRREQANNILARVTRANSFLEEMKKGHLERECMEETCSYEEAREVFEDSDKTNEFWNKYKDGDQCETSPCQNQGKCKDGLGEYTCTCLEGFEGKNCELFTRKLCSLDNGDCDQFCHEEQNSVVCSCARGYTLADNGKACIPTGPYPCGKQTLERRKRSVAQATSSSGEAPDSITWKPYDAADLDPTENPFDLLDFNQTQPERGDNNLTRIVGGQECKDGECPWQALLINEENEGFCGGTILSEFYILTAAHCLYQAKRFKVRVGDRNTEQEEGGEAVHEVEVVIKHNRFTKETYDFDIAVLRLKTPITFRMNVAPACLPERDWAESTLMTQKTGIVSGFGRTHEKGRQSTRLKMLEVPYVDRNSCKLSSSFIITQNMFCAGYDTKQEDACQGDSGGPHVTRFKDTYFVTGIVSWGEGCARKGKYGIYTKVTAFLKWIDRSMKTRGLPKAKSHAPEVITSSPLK
endpoint name: % of WT (kcat/KM)

Look over these answered cases.
FIXa-D203N/F205T/K228N (protein) chain 1: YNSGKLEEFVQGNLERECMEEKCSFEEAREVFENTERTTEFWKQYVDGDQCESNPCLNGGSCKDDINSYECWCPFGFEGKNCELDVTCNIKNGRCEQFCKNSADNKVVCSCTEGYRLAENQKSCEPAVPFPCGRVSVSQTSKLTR chain 2: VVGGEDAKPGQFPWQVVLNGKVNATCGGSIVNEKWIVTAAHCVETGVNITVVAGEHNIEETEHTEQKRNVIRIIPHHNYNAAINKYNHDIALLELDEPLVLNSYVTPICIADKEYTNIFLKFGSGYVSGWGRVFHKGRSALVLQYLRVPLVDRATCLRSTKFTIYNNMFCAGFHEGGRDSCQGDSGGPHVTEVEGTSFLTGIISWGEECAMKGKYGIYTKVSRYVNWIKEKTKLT :: 30%
FIXa-K293E/R338E/R403E (protein) chain 1: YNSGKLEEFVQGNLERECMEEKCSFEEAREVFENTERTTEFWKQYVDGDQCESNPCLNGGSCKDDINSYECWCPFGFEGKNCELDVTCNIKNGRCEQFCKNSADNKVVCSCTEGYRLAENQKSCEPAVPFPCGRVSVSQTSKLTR chain 2: VVGGEDAKPGQFPWQVVLNGKVDAFCGGSIVNEKWIVTAAHCVETGVKITVVAGEHNIEETEHTEQKRNVIRIIPHHNYNAAINKYNHDIALLELDEPLVLNSYVTPICIADEEYTNIFLKFGSGYVSGWGRVFHKGRSALVLQYLRVPLVDRATCLESTKFTIYNNMFCAGFHEGGRDSCQGDSGGPHVTEVEGTSFLTGIISWGEECAMKGKYGIYTKVSEYVNWIKEKTKLT :: 36%

Now take the following protein into account.
Please fill in: % of WT (kcat/KM) reported for FIXa-K228N/R338E/R403E (protein) chain 1: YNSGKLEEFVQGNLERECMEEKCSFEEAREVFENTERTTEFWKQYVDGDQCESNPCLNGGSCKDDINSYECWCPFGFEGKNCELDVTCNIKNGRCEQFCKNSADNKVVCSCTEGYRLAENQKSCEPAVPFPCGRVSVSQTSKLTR chain 2: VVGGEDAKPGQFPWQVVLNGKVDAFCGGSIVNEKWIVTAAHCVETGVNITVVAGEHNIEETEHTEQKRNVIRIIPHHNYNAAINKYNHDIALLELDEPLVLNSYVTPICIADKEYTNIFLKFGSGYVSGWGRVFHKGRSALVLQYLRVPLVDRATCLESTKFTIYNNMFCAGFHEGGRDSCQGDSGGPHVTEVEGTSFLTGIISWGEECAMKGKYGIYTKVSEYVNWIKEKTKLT = 105%
